Target: T1, human podocalyxin (human, UniProt O00592 23-558)
T1 construct: also called hPodo; hPodocalyxin
T1 sequence: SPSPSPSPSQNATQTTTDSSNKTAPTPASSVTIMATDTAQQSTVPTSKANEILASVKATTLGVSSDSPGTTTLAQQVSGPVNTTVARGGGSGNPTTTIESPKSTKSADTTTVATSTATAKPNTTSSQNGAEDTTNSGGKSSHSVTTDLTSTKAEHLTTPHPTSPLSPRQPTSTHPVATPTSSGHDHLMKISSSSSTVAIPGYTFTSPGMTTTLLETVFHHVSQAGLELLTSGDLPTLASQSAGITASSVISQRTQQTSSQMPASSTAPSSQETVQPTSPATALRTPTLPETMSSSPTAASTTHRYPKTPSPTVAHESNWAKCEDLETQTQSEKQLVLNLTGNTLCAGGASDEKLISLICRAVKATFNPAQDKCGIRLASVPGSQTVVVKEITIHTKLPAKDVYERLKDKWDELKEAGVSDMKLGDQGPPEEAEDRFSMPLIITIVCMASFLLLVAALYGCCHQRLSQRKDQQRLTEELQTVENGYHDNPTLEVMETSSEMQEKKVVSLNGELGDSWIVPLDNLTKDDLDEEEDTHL
Experiment: flow cytometry, supernatant Neat, MDA-MB-231 cells
The following binders are listed with their measured flow cytometry fluorescence (name not given) values.
Simply state the number, no unit and no words.

BINDER: Rb/Hu Podo83 (Podo83 rabbit VH and VL, human IgG1 chimera) (antibody, V domains shown, Rabbit variable domains cloned into human IgG1 and human Ig kappa constant region constructs (pTT5/IgG1, pTT5/Igk); also called anti-PODO; Ab-1) VH: QSLAESGGRLVTPGTPLTLTCTASGIDLSSYAMGWVRQAPGKGLEYIGFIYASGSIFYASWAKGRFTISKTSSTTVDLKMTSLTTEDTATYFCARAGYYFGGNYDLNLWGQGTLVTVSS VL: DIVLTQTPASVEVAVGGTVTIKCQASQSISNYLAWYQRKPGQPPRLLIYRASTLASGVSSRFKGSGSGTQFTLTISGVECADAATYYCQQGYVSNNLDNIFGGGTEVVVK
ASSAY VALUE: 143000
//
BINDER: huPodo 83 1:1 (humanized anti-podocalyxin antibody 83, version 1) (antibody, V domains shown, Cloned into pTT5 plasmids with human IgG heavy chain and human Ig kappa constant regions) VH: EVQLVESGGGLVQPGGSLRLSCAASGIDLSSYAMGWVRQAPGKGLEWVSFIYASGSIFYASWAKGRFTISRDNSKNTLYLQMNSLRAEDTAVYYCARAGYYFGGNYDLNLWGQGTLVTVSS VL: DIQMTQSPSSLSASVGDRVTITCQASQSISNYLAWYQQKPGKVPKLLIYRASTLASGVPSRFSGSGSGTDFTLTISSLQPEDVATYYCQQGYVSNNLDNIFGGGTEVVVK
ASSAY VALUE: 125000
//
BINDER: Rabbit Podo 83 (Parental rabbit antibody) (antibody, V domains shown, Rabbit constant regions; also called Rb Podo 83 (Rb Constant Region); rabbit Podo-83 (Ab-1)) VH: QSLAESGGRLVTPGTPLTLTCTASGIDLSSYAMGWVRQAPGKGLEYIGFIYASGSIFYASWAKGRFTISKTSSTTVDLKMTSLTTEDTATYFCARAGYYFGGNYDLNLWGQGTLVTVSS VL: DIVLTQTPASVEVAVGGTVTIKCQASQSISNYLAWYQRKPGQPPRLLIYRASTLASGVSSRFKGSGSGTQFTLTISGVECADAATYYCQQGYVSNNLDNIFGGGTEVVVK
ASSAY VALUE: 179000

Continue with the next binder.
q: Endpoint output: flow cytometry fluorescence (name not given) of huPodo 83 2:1 (humanized anti-podocalyxin antibody 83, version 2) (antibody, V domains shown, Cloned into pTT5 plasmids with human IgG heavy chain and human Ig kappa constant regions) VH: EVQLVESGGGLVQPGGSLRLSCAASGIDLSSYAMGWVRQAPGKGLEWVSFIYASGSIFYASWAKGRFTISRDNSNTLYLQMNSLRAEDTAVYYCARAGYYFGGNYDLNLWGQGTLVTVSS VL: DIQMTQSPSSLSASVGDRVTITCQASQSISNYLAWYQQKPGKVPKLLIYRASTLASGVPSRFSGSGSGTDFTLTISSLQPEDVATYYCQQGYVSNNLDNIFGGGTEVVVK . Value?
a: 123000
